Where do the numbers come from? From patent US11198713B2.

# MEASURED TARGET: full-length beta-catenin (Axin site) (Homo sapiens)
# Construct: 15 nM full-length beta-catenin, 20 nM FITC labeled peptide in buffer
# Sequence (P35222 whole entry): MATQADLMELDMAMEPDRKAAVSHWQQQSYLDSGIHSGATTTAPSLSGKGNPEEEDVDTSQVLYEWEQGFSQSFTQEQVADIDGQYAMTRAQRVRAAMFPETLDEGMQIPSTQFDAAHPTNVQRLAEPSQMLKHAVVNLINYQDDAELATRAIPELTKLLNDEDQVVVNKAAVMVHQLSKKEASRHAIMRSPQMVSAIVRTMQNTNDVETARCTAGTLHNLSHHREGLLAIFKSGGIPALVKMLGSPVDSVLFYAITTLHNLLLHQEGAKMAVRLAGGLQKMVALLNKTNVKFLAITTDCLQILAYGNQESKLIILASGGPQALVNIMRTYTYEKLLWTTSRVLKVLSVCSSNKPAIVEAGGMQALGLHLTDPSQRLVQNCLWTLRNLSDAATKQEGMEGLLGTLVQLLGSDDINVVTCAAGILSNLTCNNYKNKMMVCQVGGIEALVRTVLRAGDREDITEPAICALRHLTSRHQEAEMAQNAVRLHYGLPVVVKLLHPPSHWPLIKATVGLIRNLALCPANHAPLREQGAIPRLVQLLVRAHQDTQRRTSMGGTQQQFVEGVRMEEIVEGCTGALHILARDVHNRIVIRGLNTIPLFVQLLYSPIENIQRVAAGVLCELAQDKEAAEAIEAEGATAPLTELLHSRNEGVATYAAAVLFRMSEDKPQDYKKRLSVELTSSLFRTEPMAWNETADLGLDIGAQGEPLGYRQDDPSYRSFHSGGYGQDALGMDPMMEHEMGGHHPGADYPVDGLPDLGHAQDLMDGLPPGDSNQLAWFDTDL
# PROTOCOL DETAILS: Competition fluorescence polarization assay (Axin site probe)
# Type: binding
# ASSAY SETUP: competition fluorescence polarization, Table 2; read-out: in vitro FP EC50
Each entry below lists one item and its recorded EC50 value.

{"MOLECULE": "CC[C@H](C)[C@@H]1NC(=O)[C@H](Cc2c[nH]cn2)NC(=O)[C@H](C)NC(=O)[C@H](CC(=O)O)NC(=O)[C@H](CC(C)C)NC(=O)[C@H]([C@@H](C)CC)NC(=O)[C@](C)(NC(=O)[C@H](C)NC(C)=O)CCCCCCC=CCOC(=O)N2CC[C@@](C(=O)N[C@@H](CCCNC(=N)N)C(=O)N[C@H](C(=O)N[C@@H](Cc3c[nH]c4ccccc34)C(N)=O)C(C)C)(C2)NC1=O (single isomer, unassigned) [FP0217c Isomer 1, Ac-AR8ILDAHIMBRVW (SEQ ID NO: 280)]", "ASSAY READOUT": "EC50", "REPORTED MEASUREMENT": "500 to 5000 nM"}

We now examine a further molecule.
# EC50 lookup, item CC[C@H](C)[C@@H]1NC(=O)C2(NC(=O)[C@H](CCC(N)=O)NC(=O)[C@@H]3CCCN3C(C)=O)CN(C2)C(=O)OCC=CCC[C@](C)(C(=O)N[C@@H](Cc2c[nH]cn2)C(=O)N[C@H](C(=O)N[C@@H](CCCNC(=N)N)C(=O)N[C@@H](CCCNC(=N)N)C(=O)N[C@H](C(=O)N[C@@H](Cc2c[nH]c3ccccc23)C(=O)N[C@@H](CCCNC(=N)N)C(N)=O)C(C)C)C(C)C)NC(=O)[C@H](CC(=O)O)NC(=O)[C@H](CC(C)C)NC1=O (single isomer, unassigned) [FP0721c, Ac-P-Q-MA-I-L-D-R4-H-V-R-R-V-W-R-NH2] 500 to 5000 nM
